system: PC-3 PIP/flu tumor-bearing mice; assay: Biodistribution study in PC-3 PIP/flu tumor-bearing mice; format: in vivo, athymic nude Balb/c mice; settings: 24 h p.i., PC-3 PIP/flu tumor-bearing mice
Provide the reported Stomach of each item.
Numbers only, in % IA/g.

compound	unitAbbreviation	measuredValue
CC(C)Cc1ccc(C(C)C(=O)NC(CC(N)=O)C(=O)NCCCCC(NC(=O)CN2CCN(CC(=O)O)CCN(CC(=O)O)CCN(CC(=O)O)CC2)C(=O)NCC2CCC(C(=O)NC(Cc3ccc4ccccc4c3)C(=O)NCCCCC(NC(=O)NC(CCC(=O)O)C(=O)O)C(=O)O)CC2)cc1 (stereo not drawn) [^177Lu-Ibu-N-PSMA, metal not drawn]	% IA/g	0.17

For every item in the list below, what is its measured Stomach?
1. CC(C)Cc1ccc(C(C)C(=O)NC(CC(=O)NCCCCC(NC(=O)CN2CCN(CC(=O)O)CCN(CC(=O)O)CCN(CC(=O)O)CC2)C(=O)NCC2CCC(C(=O)NC(Cc3ccc4ccccc4c3)C(=O)NCCCCC(NC(=O)NC(CCC(=O)O)C(=O)O)C(=O)O)CC2)C(=O)O)cc1 (stereo not drawn) [^177Lu-Ibu-Dβ-PSMA, metal not drawn]
2. CC(C)Cc1ccc(C(C)C(=O)NC(CC(=O)O)C(=O)NCCCCC(NC(=O)CN2CCN(CC(=O)O)CCN(CC(=O)O)CCN(CC(=O)O)CC2)C(=O)NCC2CCC(C(=O)NC(Cc3ccc4ccccc4c3)C(=O)NCCCCC(NC(=O)NC(CCC(=O)O)C(=O)O)C(=O)O)CC2)cc1 (stereo not drawn) [^177Lu-Ibu-Dα-PSMA, metal not drawn]

stdout:
1: 0.48; 2: 0.12
